Data provenance: paper PMC10989020

Experimental Details: In vivo pharmacokinetics in dog
Design: species or system Beagle dog
Protocol Conditions: beagle, plasma, iv, 1 mg/kg, 1 mg/kg IV
Measure: clearance
I'd appreciate it if you wrote the number followed by its unit.

Challenge: Specify measured clearance for CC(C)(CC1(c2ccc(-c3cnn(C4CC4)n3)cc2)NC(=N)N(C(COC(=O)NC2(C(F)F)CC2)c2ccc(Cl)c(-c3ncnn3C(F)F)c2)C1=O)C(F)(F)F (stereo not shown) .
Response given: 18.8 mL/min/kg

* * *

Experimental Details: In vivo pharmacokinetics in monkey
Protocol Conditions: plasma; cynomolgus monkey; 1 mg/kg IV and 4 mg/kg PO; read-out: F% (oral bioavailability)
Measure: bioavailability
I'd appreciate it if you wrote the number followed by its unit.

Challenge: Specify measured bioavailability for CC(C)(CC1(c2ccc(-c3cnn(C4CC4)n3)cc2)NC(=N)N(C(COC(=O)NC2(C(F)F)CC2)c2ccc(Cl)c(-c3ncnn3C(F)F)c2)C1=O)C(F)(F)F (stereo not shown) .
Response given: 100%
